Molecular target: human NaV 1.8 (Homo sapiens, UniProt Q9Y5Y9)
Sequence (Q9Y5Y9 whole entry, looked up): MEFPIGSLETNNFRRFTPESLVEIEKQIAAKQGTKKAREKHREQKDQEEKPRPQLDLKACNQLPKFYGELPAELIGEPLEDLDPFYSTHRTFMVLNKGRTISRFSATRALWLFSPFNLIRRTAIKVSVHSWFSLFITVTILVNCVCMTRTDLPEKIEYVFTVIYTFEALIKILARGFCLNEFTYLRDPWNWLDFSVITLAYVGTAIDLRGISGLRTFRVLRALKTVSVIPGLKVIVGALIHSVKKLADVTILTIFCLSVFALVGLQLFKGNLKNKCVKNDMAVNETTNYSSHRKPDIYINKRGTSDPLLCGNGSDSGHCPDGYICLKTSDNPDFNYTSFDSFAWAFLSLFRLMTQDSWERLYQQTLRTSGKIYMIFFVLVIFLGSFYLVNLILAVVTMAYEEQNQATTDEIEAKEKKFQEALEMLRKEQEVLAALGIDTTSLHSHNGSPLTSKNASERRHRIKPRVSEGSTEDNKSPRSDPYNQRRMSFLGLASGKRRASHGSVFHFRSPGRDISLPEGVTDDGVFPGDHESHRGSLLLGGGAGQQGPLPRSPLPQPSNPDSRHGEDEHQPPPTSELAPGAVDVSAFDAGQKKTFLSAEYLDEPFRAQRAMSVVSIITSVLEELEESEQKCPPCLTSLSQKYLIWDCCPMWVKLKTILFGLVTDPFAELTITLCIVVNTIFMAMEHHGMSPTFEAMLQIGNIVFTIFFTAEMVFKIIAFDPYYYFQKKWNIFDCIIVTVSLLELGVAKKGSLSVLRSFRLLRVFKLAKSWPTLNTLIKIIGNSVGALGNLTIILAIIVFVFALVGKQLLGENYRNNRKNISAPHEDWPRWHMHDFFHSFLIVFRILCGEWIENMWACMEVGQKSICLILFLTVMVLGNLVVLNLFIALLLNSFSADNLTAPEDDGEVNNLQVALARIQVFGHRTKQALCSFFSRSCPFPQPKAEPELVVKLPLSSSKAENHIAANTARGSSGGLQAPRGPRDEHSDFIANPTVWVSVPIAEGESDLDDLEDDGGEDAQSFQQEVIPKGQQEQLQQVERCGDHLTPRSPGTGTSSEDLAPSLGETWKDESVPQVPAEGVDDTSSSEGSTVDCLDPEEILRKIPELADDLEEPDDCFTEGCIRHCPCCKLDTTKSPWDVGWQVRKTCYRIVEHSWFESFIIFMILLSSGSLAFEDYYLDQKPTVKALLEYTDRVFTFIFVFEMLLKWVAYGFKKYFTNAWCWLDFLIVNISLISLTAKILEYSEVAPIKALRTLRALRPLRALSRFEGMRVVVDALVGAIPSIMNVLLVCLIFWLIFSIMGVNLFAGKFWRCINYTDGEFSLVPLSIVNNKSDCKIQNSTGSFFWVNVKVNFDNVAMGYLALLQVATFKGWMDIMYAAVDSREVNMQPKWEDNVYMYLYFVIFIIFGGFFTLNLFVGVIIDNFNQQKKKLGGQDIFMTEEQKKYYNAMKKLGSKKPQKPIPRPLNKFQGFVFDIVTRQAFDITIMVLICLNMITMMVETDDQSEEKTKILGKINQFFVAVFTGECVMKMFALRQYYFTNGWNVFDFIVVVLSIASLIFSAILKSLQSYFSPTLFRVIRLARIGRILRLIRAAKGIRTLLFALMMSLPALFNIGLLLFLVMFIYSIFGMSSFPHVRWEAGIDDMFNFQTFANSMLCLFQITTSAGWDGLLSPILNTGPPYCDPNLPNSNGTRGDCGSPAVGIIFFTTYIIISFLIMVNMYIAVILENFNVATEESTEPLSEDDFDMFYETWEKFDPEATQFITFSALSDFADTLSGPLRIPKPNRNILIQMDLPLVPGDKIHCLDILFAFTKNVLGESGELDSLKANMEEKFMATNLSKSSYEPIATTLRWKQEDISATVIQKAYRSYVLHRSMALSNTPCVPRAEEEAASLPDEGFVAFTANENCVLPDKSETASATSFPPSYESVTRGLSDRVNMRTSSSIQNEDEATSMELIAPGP
Assay: E-VIPR assay for detecting and measuring NaV inhibition properties
Assay type: cell-based
Conditions: E-VIPR assay conducted in the presence of human serum; HEK cells expressing truncated human NaV 1.8; read-out: IC50
pIC50: −log10 of the molar value.
Reported Metric: pIC50

Illustrative cases are given below, each with its answer.
compound_structure=COc1cc(OC(F)(F)F)ccc1Oc1cc(-c2ccoc2)ccc1C(=O)Nc1ccnc(C(N)=O)c1 obs_value=6.01
compound_structure=COc1c(Oc2ccc(C(F)(F)F)c(C)c2C(=O)Nc2cc(C(N)=O)ccn2)ccc(OC(F)(F)F)c1F obs_value=6.92
compound_structure=COc1cc(OC(F)(F)F)ccc1Oc1ccc(C2CC2)c(C)c1C(=O)Nc1ccc(C(N)=O)nc1 obs_value=6.54
compound_structure=CCOc1ccc(Oc2ccc(C(F)(F)F)c(C)c2C(=O)Nc2ccnc(C(N)=O)c2)c(F)c1F obs_value=7.40
compound_structure=[2H]C([2H])([2H])Oc1cc(OC(F)(F)F)ccc1Oc1ccc(C(F)(F)F)c(C)c1C(=O)Nc1ccc(C(N)=O)nc1 obs_value=7.60
compound_structure=CC(C)Oc1ccc(Oc2cccc(C(F)(F)F)c2C(=O)Nc2ccnc(C(N)=O)c2)c(F)c1F obs_value=6.25
compound_structure=COc1c(Cl)cc(Oc2ccc(OC(F)(F)F)c(F)c2OC)c(C(=O)Nc2ccnc(C(N)=O)c2)c1F obs_value=8.89
compound_structure=COc1cc(OC(F)(F)F)ccc1Oc1cnc(C(F)(F)F)c(C)c1C(=O)Nc1cc(C(N)=O)ncc1C obs_value=7.62
compound_structure=COc1c(C(F)(F)F)ccc(Oc2ccc(F)c(Cl)c2)c1C(=O)Nc1ccnc(C(N)=O)c1 obs_value=6.46
compound_structure=COc1c(F)cccc1Oc1ccc(C(F)(F)F)c(F)c1C(=O)Nc1ccnc(C(N)=O)c1 obs_value=6.92

I. [2H]C([2H])([2H])Oc1cc(OC(F)(F)F)ccc1Oc1cc(C#CCC(C)C)cc(F)c1C(=O)Nc1ccnc(C(N)=O)c1
II. NC(=O)c1cc(NC(=O)c2c(Oc3ccc(OC4CCCCC4)cc3)ccc(C(F)(F)F)c2F)ccn1
III. COc1c(Oc2cnc(C(F)(F)F)c(OC)c2C(=O)Nc2ccnc(C(N)=O)c2)ccc(OC(F)(F)F)c1F
q: Please give the order of these compounds when sorted by pIC50, largest value leading. Answer by writing out the labels in the requested order.
a: III, I, II
(III: 8.31, I: 7.39, II: 6.29)

###

Target: UniProtKB Q9Y5Y9
Assay: E-VIPR assay for detecting and measuring NaV inhibition properties
Assay type: cell-based
Conditions: E-VIPR assay conducted in the presence of human serum; HEK cells expressing truncated human NaV 1.8; read-out: IC50
pIC50: −log10 of the molar value.
Reported Metric: pIC50

A. NC(=O)c1ccc(NC(=O)c2c(Oc3ccc(OC(F)(F)F)cc3Cl)ccc(C(F)(F)F)c2F)cn1
B. Cc1cnc(C(N)=O)cc1NC(=O)c1c(Oc2ccc(OC(F)(F)F)c(F)c2C)ccc(C(F)(F)F)c1C
q: Which entry shows the lesser value of pIC50 here, A or B ? Your answer should be the label of the entry you select.
a: A

###

Target: human NaV 1.8 (Homo sapiens)
Assay: E-VIPR assay for detecting and measuring NaV inhibition properties
Assay type: cell-based
Conditions: E-VIPR assay conducted in the presence of human serum; HEK cells expressing truncated human NaV 1.8; read-out: IC50
pIC50: −log10 of the molar value.
Reported Metric: pIC50

Use these answered entries as a reference point.
compound=COc1cc(OC(F)(F)F)ccc1Oc1cc(-c2ccc(F)cc2)cc(F)c1C(=O)Nc1ccc(C(N)=O)nc1 reported_metric=pIC50 obs_value=6.64
compound=[2H]C([2H])([2H])Oc1cc(OC(F)(F)F)ccc1Oc1cc(C#CC2CCC2)cc(F)c1C(=O)Nc1ccnc(C(N)=O)c1 reported_metric=pIC50 obs_value=6.82
compound=COc1c(Oc2cc3c(c(F)c2C(=O)Nc2ccnc(C(N)=O)c2)OCC(C)(C)O3)ccc(OC(F)(F)F)c1F reported_metric=pIC50 obs_value=8.22
compound=CC(C)Oc1ccc(Oc2ccc(C(F)(F)F)cc2C(=O)Nc2ccnc(C(N)=O)c2)cc1 reported_metric=pIC50 obs_value=5.89

I. Cc1nc(C(F)(F)F)ccc1Oc1ccc(C(F)(F)F)c(F)c1C(=O)Nc1ccnc(C(N)=O)c1
II. COc1c(Oc2cc(C(F)(F)F)c(OC)c(F)c2C(=O)Nc2ccnc(C(N)=O)c2)ccc(OC(F)(F)F)c1F
q: Determine, for I and II , which has the greater value of pIC50. Answer with the label corresponding to your selection.
a: II

###

Target: human NaV 1.8 (Homo sapiens)
Assay: E-VIPR assay for detecting and measuring NaV inhibition properties
Type: cell-based
Conditions: E-VIPR assay conducted in the presence of human serum; HEK cells expressing truncated human NaV 1.8; read-out: IC50
pIC50: −log10 of the molar value.
Reported Metric: pIC50

The examples below pair each entry with its known result.
compound=Cc1c(C(F)(F)F)ccc(Oc2ccc(F)c(F)c2F)c1C(=O)Nc1ccnc(C(N)=O)c1 test_system="human NaV 1.8 (Homo sapiens)" obs_value=7.17
compound=Cc1c(C2CC2)ccc(Oc2ccc(OC(F)(F)F)cc2Cl)c1C(=O)Nc1ccc(C(N)=O)nc1 test_system="human NaV 1.8 (Homo sapiens)" obs_value=6.23
compound=[2H]C([2H])([2H])Oc1c(Oc2ccc(C(F)F)c(OC)c2C(=O)Nc2ccnc(C(N)=O)c2)ccc(OC(F)(F)F)c1F test_system="human NaV 1.8 (Homo sapiens)" obs_value=8.28

1. [2H]C([2H])([2H])Oc1cc(OC(F)(F)F)ccc1Oc1cc(C2CCC(OC)CC2)cc(F)c1C(=O)Nc1ccnc(C(N)=O)c1 (single isomer, unassigned) [1017 (second diastereomer)]
2. [2H]C([2H])([2H])Oc1cc(OC(F)(F)F)ccc1Oc1cc(C#CC(C)(C)C)cc(F)c1C(=O)Nc1ccnc(C(N)=O)c1
3. COc1cc(OC(F)(F)F)ccc1Oc1cc(Br)cc(F)c1C(=O)Nc1ccnc(C(N)=O)c1
q: Rank entries according to their pIC50, from the largest number down. Write the labels, ordered according to the request.
a: 3, 1, 2

###

Biological target: human NaV 1.8 (Homo sapiens, UniProt Q9Y5Y9)
Test: E-VIPR assay for detecting and measuring NaV inhibition properties
Type: cell-based
Conditions: E-VIPR assay conducted in the presence of human serum; HEK cells expressing truncated human NaV 1.8; read-out: IC50
Reported Metric: IC50 (nM)

Worked examples, 4 compounds total:
compound="Cc1cnc(C(N)=O)cc1NC(=O)c1c(Oc2ccc(OC(F)(F)F)c(F)c2Cl)ccc(C(F)(F)F)c1F [Compound 296]" obs_value=24.6
compound="COc1c(C(F)(F)F)ccc(Oc2ccc(OC(C)C)c(F)c2)c1C(=O)Nc1ccnc(C(N)=O)c1 [Compound 67]" obs_value=110
compound="CNC(=O)c1cc(NC(=O)c2c(Oc3ccc(F)c(F)c3OC)cc(OC)c(C(F)(F)F)c2F)ccn1 [Compound 301]" obs_value=22
compound="CC(C)Oc1ccc(Oc2ccc(C(F)(F)F)c(F)c2C(=O)Nc2ccnc(C(N)=O)c2)cc1 [Compound 37]" obs_value=26

I. COc1c(Oc2ccc(C(F)(F)F)c(F)c2C(=O)Nc2cc(C(N)=O)ccn2)ccc(OC(F)(F)F)c1F [Compound 330]
II. COc1cc(OC(F)(F)F)ccc1Oc1cc(C(F)(F)F)nc(OC)c1C(=O)Nc1cc(C(N)=O)ncc1C [Compound 272]
III. COc1c(Oc2ccc(C(F)(F)F)c(F)c2C(=O)Nc2ccnc(C(N)=O)c2)ccc(OC(F)F)c1F [Compound 343]
IV. Cc1c(C(F)(F)F)ccc(Oc2ccc(F)cc2F)c1C(=O)Nc1ccnc(C(N)=O)c1 [Compound 131]
q: With regard to IC50, arrange the entries in ascending order, please. I would appreciate it if you listed the labels in the requested order.
a: III, I, II, IV
(III: 4.8 nM, I: 29 nM, II: 89 nM, IV: 155 nM)

1. NC(=O)c1cc(NC(=O)c2c(Oc3ccc(F)c(F)c3F)ccc(C(F)(F)F)c2F)ccn1 [Compound 49]
2. NC(=O)c1ccc(NC(=O)c2c(Oc3ccc(OC(F)(F)F)c(F)c3)ccc(C(F)(F)F)c2F)cn1 [Compound 216]
3. COc1c(Oc2cnc(C(F)(F)F)c(C)c2C(=O)Nc2ccc(C(N)=O)nc2)ccc(OC(F)(F)F)c1F [Compound 337]
q: Hey, quick one: sort these by IC50, largest value first please. // list labels; follow requested order
a: 2, 1, 3

###

Target: human NaV 1.8 (Homo sapiens, UniProt Q9Y5Y9)
Assay: E-VIPR assay for detecting and measuring NaV inhibition properties
Assay type: cell-based
Settings: E-VIPR assay conducted in the presence of human serum; HEK cells expressing truncated human NaV 1.8
Reported Metric: pIC50
Recall that pIC50 is obtained by taking minus log10 of the concentration measured in molar.

compound_structure=Cc1c(Oc2ccc(C(F)(F)F)c(C)c2C(=O)Nc2ccc(C(N)=O)nc2)ccc(OC(F)(F)F)c1F reported_metric=pIC50 obs_value=7.41

Attention now turns to another entry.
q: Could you tell me which pIC50 is on file for `COc1cc(OC(F)(F)F)ccc1Oc1ccc(-c2ccccc2)c(F)c1C(=O)Nc1ccnc(C(N)=O)c1` ?
a: 7.70

Reference source: patent US12441703B2
